experiment: Stability of ligands in 0.1 M PBS (UV/Vis concentration); type: physicochemical; conditions: same storage times
parameter: difference rt and 277 K

Here are 4 compounds together with their reported answers.
compound	difference rt and 277 K
Oc1cc(O)c2c(c1)O[C@H](c1ccc(O)c(O)c1)[C@H](O)[C@H]2c1c(O)cc(O)c2c1O[C@H](c1ccc(O)c(O)c1)[C@H](O)C2	0,11 mM
Oc1cc(O)c2c(c1)O[C@H](c1ccc(O)c(O)c1)[C@H](O)C2 [EC, (−)-Epicatechin]	0,24 mM
Oc1cc(O)c2c(c1)O[C@H](c1ccc(O)c(O)c1)[C@H](O)[C@H]2c1c(O)cc(O)c2c1O[C@H](c1ccc(O)c(O)c1)[C@H](O)[C@H]2c1c(O)cc(O)c2c1O[C@H](c1ccc(O)c(O)c1)[C@H](O)C2	0,31 mM
Oc1cc(O)c2c(c1)O[C@H](c1ccc(O)c(O)c1)[C@@H](O)C2 [CAT, (+)-Catechin]	0,08 mM

# evaluate next
(Q) Query difference rt and 277 K for Oc1cc(O)c2c(c1)O[C@H](c1ccc(O)c(O)c1)[C@H](O)[C@H]2c1c(O)cc(O)c2c1O[C@H](c1ccc(O)c(O)c1)[C@@H](O)C2
(A) 0,18 mM
